Data credit: PubChem BioAssay (NCI)

Tested on: CAKI-1 renal
Method: NCI-60 one-dose screen, 48 h
Condition: 10 µM unless noted
Compounds without any hit were thinned out: in the full panel of roughly 83,000, 20% have a hit. Active and inactive are the calls of the source. How the source made its calls: active means growth percent below 10; inactive means the rest.
Respond with a class label; see True = active, False = inactive

INSERT INTO assay_data (molecule, class_assignment) VALUES
  ('COC(=O)/C=C/c1cccc2c1C(=O)NC(C)(c1cc3ccccc3oc1=O)N2 (stereo not drawn)', 'False'),
  ('O=C(O)c1cccc(-c2ccc(/C=N/NC(=O)c3[nH]c4ccc(Br)cc4c3-c3ccccc3)s2)c1', 'False'),
  ('Cc1cc2c(cc1Cl)C(=O)/C(=C/c1ccccc1)O2', 'True'),
  ('Cc1cc2nc3c4ccccc4n(CCNCCN(C)C)c3nc2cc1C', 'False'),
  ('Cc1ccc(C(=O)CSc2nc3ccc(C)cc3c(=O)n2-c2ccc(F)cc2)cc1', 'False'),
  ('CC(=O)NNc1ccc2nnc(-c3ccccc3)n2n1', 'False'),
  ('N#Cc1c(-c2cccc(Cl)c2Cl)cc(-c2c[nH]c3ccccc23)[nH]c1=O', 'False');

What did this assay record as the result for COc1cccc(/C=C/C(=O)c2ccc(OC)c(S(N)(=O)=O)c2)c1 ?
False

====

Each entry below carries its recorded growth.
Tested on: NCI-H226 lung
Method: NCI-60 one-dose screen, 48 h (100 = growth as untreated, 0 = no growth, -100 = all killed)
Condition: 10 µM unless noted
This is part of a sample that, as a whole, favours compounds with a hit. Of some 83,000 tested, about 20% had one in any assay.
Could you give me the number in %? Just the number is fine.

INSERT INTO measurements (compound, value_type, measure_unit, readout_number) VALUES
  ('CC(C)c1ccc2c(N)c(C(=O)Nc3ccc(C(F)(F)F)cn3)sc2n1', 'growth', '%', 22.9);

Param readout = growth; param system = NCI-H226 lung; param query = COc1ccc(C(=O)/C=C/c2ccc(Oc3nc(Nc4ccc(F)cc4)nc(N(C)C)n3)c(OC)c2)cc1 ; response: value
69.7

====

Tested on: BT-549 breast
Method: NCI-60 one-dose screen, 48 h (100 = growth as untreated, 0 = no growth, -100 = all killed)
Condition: 10 µM unless noted
About 83,000 compounds went through this panel and 20% of them were active in at least one assay; those are over-represented in the sample as a whole. Active and inactive are the calls of the source. The calls were made as follows: active = growth percent below 10; inactive = the rest.
Value Type: growth

Can you share its growth? I mean this compound: COc1cc(NC(=O)c2cccc(C3CCc4c(cc(OC)c(OC)c4OC)O3)c2)cc(OC)c1OC (stereo unspecified)
-6.89% (active)

Can you share its growth? I mean this compound: COc1ccc(/C=C2\C(=O)Nc3ccc(Cl)cc32)cc1OCc1ccccn1
46.1% (inactive)

====

Test system: NCI-H522 lung
Method: NCI-60 one-dose screen, 48 h (100 = growth as untreated, 0 = no growth, -100 = all killed)
Condition: 10 µM unless noted
Compounds without any hit were thinned out: in the full panel of roughly 83,000, 20% have a hit.
Each entry below carries its recorded growth.
Could you give me the number in %? Just the number is fine.

INSERT INTO results (molecule, measure_unit, readout_number) VALUES
  ('CCOC(=O)c1ccc(Nc2nc(NN)nc(-c3ccc(F)cc3)c2C#N)cc1', '%', 98.5),
  ('C#CCOc1ccc(/C=N/Nc2nc(-c3ccc(Cl)cc3)cs2)cc1OC', '%', 47.5),
  ('C=C1CCC2C3(C)COC(c4cc(F)cc(F)c4)OC3CCC2(C)C1CC(O)C1=CCOC1=O (stereo unspecified)', '%', 11.9),
  ('Cc1ccc(-n2c(-c3cc4ccccc4nc3Cl)noc2=O)cc1', '%', 62.7),
  ('COc1c(F)ccc(C(=O)Nc2ccc3nc(NC(=O)C4CCCN(S(=O)(=O)c5cccc(C(F)(F)F)c5)C4)sc3c2)c1F (stereo unspecified)', '%', 85.2);

Read the next record carefully.
Can you share its growth? I mean this molecule: C#C[C@]1(O)CC[C@H]2[C@@H]3CC=C4c5sc(-c6ccc([N+](=O)[O-])cc6)nc5CC[C@]4(C)[C@H]3CC[C@@]21C
-5.59
